# Test system: kochia (Kochia scoparia L; KCHSC)
# ASSAY_COMMENT: Postemergence herbicidal activity, greenhouse, visual injury: kochia
# Format: in vivo
# EXPERIMENTAL_CONDITIONS: herbicide alone 70 g/ha; 20-22 d
OUTCOME_MEASURE: KCHSC Ob (visual injury) (%)
Give bare numbers, in %.

Example entries and their recorded answers appear below.
INSERT INTO assay_data (compound, outcome_measure, data_value) VALUES
  ('COc1c(N)nc(-c2ccc(C)cc2)nc1C(=O)O [Compound 6]', 'KCHSC Ob (visual injury)', 60),
  ('COc1c(N)nc(-c2ccc(Cl)c(F)c2)nc1C(=O)O [Compound 9]', 'KCHSC Ob (visual injury)', 100),
  ('C=Cc1c(N)nc(-c2ccc(Cl)c(N(C)C)c2F)nc1C(=O)O [Compound 7]', 'KCHSC Ob (visual injury)', 65);

Recorded KCHSC Ob (visual injury) (compound COc1c(N)nc(-c2ccc(Cl)c(OC)c2F)nc1C(=O)O [Compound 8] ): 90

---

# Tested on: spring wheat (Triticum aestivum L; TRZAS)
# ASSAY_COMMENT: Postemergence herbicidal safening in cereal crops, greenhouse, visual injury: spring wheat
# Type: in vivo
# EXPERIMENTAL_CONDITIONS: Triticum aestivum, post-emergence, 480 h; herbicide alone 70 g/ha; 20-22 d; read-out: TRZAS Ob (visual injury)
# strict inequality: pest or weed control at 70 g/ha < 20% yields 1, everything else yields 0

Please review the entries below; each comes with its answer.
INSERT INTO results (compound_string, label) VALUES
  ('COc1c(N)nc(-c2ccc(Cl)c(F)c2)nc1C(=O)O', 0),
  ('COc1c(Cl)ccc(-c2nc(N)c(Cl)c(C(=O)O)n2)c1F', 0);

Check if pest or weed control at 70 g/ha falls below 20% for "C=Cc1c(N)nc(-c2ccc(Cl)c(N(C)C)c2F)nc1C(=O)O" .
0

Check if pest or weed control at 70 g/ha falls below 20% for "C=Cc1c(N)nc(-c2ccc(Cl)c(OC)c2F)nc1C(=O)OC" .
1

Check if pest or weed control at 70 g/ha falls below 20% for "COc1c(N)nc(-c2ccc(Cl)c(OC)c2F)nc1C(=O)O" .
0
